experiment: Log P by HPLC on reversed phase columns, acidic range (EEC directive 79/831 Annex V.A8); type: physicochemical; details: reversed phase HPLC columns; LC-UV, acidic range, 0.1% formic acid in water and acetonitrile; read-out: logP a) (HCOOH)
Reported property: chromatographic logP
Give the figure only, with no unit attached.

Form: compound = O=C(NCC(F)(F)c1ncc(-n2ccc(C(F)(F)F)n2)cc1Cl)c1cccnc1C(F)(F)F ; chromatographic logP = 3.27

Form: compound = O=C(NCC(F)(F)c1ncc(-n2cc(C(F)(F)F)cn2)cc1Cl)c1nccnc1C(F)(F)F ; chromatographic logP = 3.43

Form: compound = O=C(NCC(F)(F)c1ncc(-n2cc(F)cn2)cc1Cl)c1nccnc1C(F)(F)F ; chromatographic logP = 2.88

Form: compound = O=C(NCC(F)(F)c1ncc(-c2cnn(CC(F)(F)F)c2)cc1Cl)c1cccnc1C(F)(F)F ; chromatographic logP = 2.66

Form: compound = O=C(NCC(F)(F)c1ncc(-n2cc(Cl)cn2)cc1Cl)c1cccnc1C(F)(F)F ; chromatographic logP = 3.07

Form: compound = O=C(NCC(F)(F)c1ncc(-n2cc(C(F)(F)F)cn2)cc1Cl)c1cccnc1C(F)(F)F ; chromatographic logP = 3.24

Form: compound = O=C(NCC(F)(F)c1ncc(-n2cc(F)cn2)cc1Cl)c1cccnc1C(F)(F)F ; chromatographic logP = 2.7

Form: compound = O=C(NCC(F)(F)c1ncc(-c2cnn(CC(F)(F)F)c2)cc1Cl)c1ccccc1C(F)(F)F ; chromatographic logP = 3.1

Form: compound = Cn1ccc(-c2cnc(C(F)(F)CNC(=O)c3ccccc3C(F)(F)F)c(Cl)c2)c1 ; chromatographic logP = 3.22

Form: compound = Cc1occc1-c1cnc(C(F)(F)CNC(=O)c2ccccc2C(F)(F)F)c(Cl)c1 ; chromatographic logP = 3.53

Form: compound = O=C(NCC(F)(F)c1ncc(-c2cnn(CC(F)(F)F)c2)cc1Cl)c1nccnc1C(F)(F)F ; chromatographic logP = 2.85

Form: compound = O=C(NCC(F)(F)c1ncc(-n2cc(F)cn2)cc1Cl)c1ccccc1C(F)(F)F ; chromatographic logP = 3.12

Taken from patent US20170217931A1.
